Assay: Phase 1 food effect study B, 16 mg daily dose reached by weekly escalation, healthy adults (Example 6)
Assay type: in vivo, human
Settings: human, in vivo, oral, 16 mg, STUDY B - 16 mg (with titration), Fasted; read-out: Cmax, geometric LS mean (geometric CV %)
quantity measured: Cmax (ng/mL)
Field: numeric (ng/mL). Do not append units.

So, Cc1cc(-n2nc3c(c2-n2ccn(-c4ccc5c(cnn5C)c4F)c2=O)[C@H](C)N(C(=O)c2cc4cc([C@H]5CCOC(C)(C)C5)ccc4n2[C@@]2(c4noc(=O)[nH]4)C[C@@H]2C)CC3)cc(C)c1F [OFG, hydrate] ? Its Cmax was 80.5

* * *

Test: Phase 1 food effect study A, single 3 mg dose, healthy adults (Example 6)
Type: in vivo, human
Conditions: human, in vivo, oral, 3 mg, STUDY A - 3 mg, Fasted; read-out: AUC(0-∞), geometric LS mean (geometric CV %)
quantity measured: AUC(0-inf) (ng·h/mL)
# value in ng·h/mL; strip the unit string

Measured AUC(0-inf), Cc1cc(-n2nc3c(c2-n2ccn(-c4ccc5c(cnn5C)c4F)c2=O)[C@H](C)N(C(=O)c2cc4cc([C@H]5CCOC(C)(C)C5)ccc4n2[C@@]2(c4noc(=O)[nH]4)C[C@@H]2C)CC3)cc(C)c1F [OFG, hydrate] : 362

* * *

Assay: Phase 1 food effect study A, single 3 mg dose, healthy adults (Example 6)
Type: in vivo, human
Details: human, in vivo, oral, 3 mg, STUDY A - 3 mg, Fasted; read-out: Cmax, geometric LS mean (geometric CV %)
quantity measured: Cmax (ng/mL)
Field format: number, assumed ng/mL, no unit text.

Input Cc1cc(-n2nc3c(c2-n2ccn(-c4ccc5c(cnn5C)c4F)c2=O)[C@H](C)N(C(=O)c2cc4cc([C@H]5CCOC(C)(C)C5)ccc4n2[C@@]2(c4noc(=O)[nH]4)C[C@@H]2C)CC3)cc(C)c1F [OFG, hydrate] . Output Cmax: 13.4

* * *

Assay: Phase 1 food effect study B, 16 mg daily dose reached by weekly escalation, healthy adults (Example 6)
Format: in vivo, human
Conditions: human, in vivo, oral, 16 mg, STUDY B - 16 mg (with titration), Fasted; read-out: T1/2, geometric mean (range) (converted)
quantity measured: half-life
Report field: quantity (unit follows the number).

Looking up Cc1cc(-n2nc3c(c2-n2ccn(-c4ccc5c(cnn5C)c4F)c2=O)[C@H](C)N(C(=O)c2cc4cc([C@H]5CCOC(C)(C)C5)ccc4n2[C@@]2(c4noc(=O)[nH]4)C[C@@H]2C)CC3)cc(C)c1F [OFG, hydrate] , I found its half-life recorded as 26 h

* * *

Experiment: Phase 1 food effect study B, 16 mg daily dose reached by weekly escalation, healthy adults (Example 6)
Assay type: in vivo, human
Conditions: human, in vivo, oral, 16 mg, STUDY B - 16 mg (with titration), Fed; read-out: AUC(0-24), geometric LS mean (geometric CV %)
quantity measured: AUC(0-t) (ng·h/mL)
State just the number; it will be interpreted in ng·h/mL.

// AUC(0-t) lookup, molecule = Cc1cc(-n2nc3c(c2-n2ccn(-c4ccc5c(cnn5C)c4F)c2=O)[C@H](C)N(C(=O)c2cc4cc([C@H]5CCOC(C)(C)C5)ccc4n2[C@@]2(c4noc(=O)[nH]4)C[C@@H]2C)CC3)cc(C)c1F [OFG, hydrate] , result: 1050

* * *

Assay: Phase 1 food effect study A, single 3 mg dose, healthy adults (Example 6)
Type: in vivo, human
Conditions: human, in vivo, oral, 3 mg, STUDY A - 3 mg, Fed; read-out: T1/2, geometric mean (range) (converted)
quantity measured: half-life (h)
Write down the numeric answer in h and omit the unit.

Consider Cc1cc(-n2nc3c(c2-n2ccn(-c4ccc5c(cnn5C)c4F)c2=O)[C@H](C)N(C(=O)c2cc4cc([C@H]5CCOC(C)(C)C5)ccc4n2[C@@]2(c4noc(=O)[nH]4)C[C@@H]2C)CC3)cc(C)c1F [OFG, hydrate] . Its measured half-life is 27.9

* * *

Test: Phase 1 food effect study A, single 3 mg dose, healthy adults (Example 6)
Assay type: in vivo, human
Conditions: human, in vivo, oral, 3 mg, STUDY A - 3 mg, Fed; read-out: AUC(0-∞), geometric LS mean (geometric CV %)
quantity measured: AUC(0-inf) (ng·h/mL)
API: value field is a number in ng·h/mL; no unit string.

molecule Cc1cc(-n2nc3c(c2-n2ccn(-c4ccc5c(cnn5C)c4F)c2=O)[C@H](C)N(C(=O)c2cc4cc([C@H]5CCOC(C)(C)C5)ccc4n2[C@@]2(c4noc(=O)[nH]4)C[C@@H]2C)CC3)cc(C)c1F [OFG, hydrate] , AUC(0-inf) observed: 260

* * *

Test: Phase 1 food effect study B, 16 mg daily dose reached by weekly escalation, healthy adults (Example 6)
Type: in vivo, human
Conditions: human, in vivo, oral, 16 mg, STUDY B - 16 mg (with titration), Fed; read-out: Cmax, geometric LS mean (geometric CV %)
quantity measured: Cmax (ng/mL)
Reply with just the number (in ng/mL).

Item: Cc1cc(-n2nc3c(c2-n2ccn(-c4ccc5c(cnn5C)c4F)c2=O)[C@H](C)N(C(=O)c2cc4cc([C@H]5CCOC(C)(C)C5)ccc4n2[C@@]2(c4noc(=O)[nH]4)C[C@@H]2C)CC3)cc(C)c1F [OFG, hydrate] | Cmax: 67.5

* * *

Experiment: Phase 1 food effect study A, single 3 mg dose, healthy adults (Example 6)
Format: in vivo, human
Settings: human, in vivo, oral, 3 mg, STUDY A - 3 mg, Fasted; read-out: T1/2, geometric mean (range) (converted)
quantity measured: half-life (h)
Record the value in h, omitting the unit from your answer.

So, Cc1cc(-n2nc3c(c2-n2ccn(-c4ccc5c(cnn5C)c4F)c2=O)[C@H](C)N(C(=O)c2cc4cc([C@H]5CCOC(C)(C)C5)ccc4n2[C@@]2(c4noc(=O)[nH]4)C[C@@H]2C)CC3)cc(C)c1F [OFG, hydrate] ? Its half-life was 29.5

* * *

Assay: Phase 1 food effect study A, single 3 mg dose, healthy adults (Example 6)
Type: in vivo, human
Conditions: human, in vivo, oral, 3 mg, STUDY A - 3 mg, Fed; read-out: Cmax, geometric LS mean (geometric CV %)
quantity measured: Cmax (ng/mL)
Give your result in ng/mL as a bare value.

The molecule identified as Cc1cc(-n2nc3c(c2-n2ccn(-c4ccc5c(cnn5C)c4F)c2=O)[C@H](C)N(C(=O)c2cc4cc([C@H]5CCOC(C)(C)C5)ccc4n2[C@@]2(c4noc(=O)[nH]4)C[C@@H]2C)CC3)cc(C)c1F [OFG, hydrate] registered its Cmax at 10.1
